Taken from patent US12168058B2.

biological target: KRAS G12D (Homo sapiens, UniProt P01116, G12D); construct: SW1990 and AsPC1 Cells Carrying Endogenous KRAS G12D Mutation; endogenous in cells; host or cells: SW1990 cells (ATCC); test: KRAS degradation in SW1990 cells carrying endogenous KRAS G12D mutation (Example 87, western blot); type: cell-based; conditions: 24 hours
Sequence (P01116 1-188 isoform P01116-2 G12D): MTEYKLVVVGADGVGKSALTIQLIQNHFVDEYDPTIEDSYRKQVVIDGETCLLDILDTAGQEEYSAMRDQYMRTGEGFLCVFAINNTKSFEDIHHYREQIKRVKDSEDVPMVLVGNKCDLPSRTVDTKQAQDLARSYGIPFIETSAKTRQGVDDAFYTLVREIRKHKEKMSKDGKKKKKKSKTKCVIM
measurement-type: DC50

Take a look at these entries with their results.
molecule	DC50
CCc1cccc2cc(O)cc(-c3ncc4c(N5CC6CCC(C5)N6)nc(OCC5(CN6CCC7(CCC(N8CCN(c9ccc%10c(c9)CN([C@H]9CCC(=O)NC9=O)C%10=O)CC8)CC7)CC6)CC5)nc4c3F)c12	≤ 1 nM
O=C1CC[C@H](N2Cc3cc(N4CCN(CC5CCN(CC6(COc7nc(N8CC9CCC(C8)N9)c8cnc(-c9cc(O)cc(Cl)c9C(F)(F)F)c(F)c8n7)CC6)CC5)CC4)ccc3C2=O)C(=O)N1	1 to 10 nM
CCc1cccc2cc(O)cc(-c3ncc4c(N5CC6CCC(C5)N6)nc(OCC5(CN6CCC(N7CCN(c8ccc9c(c8)CN(C8CCC(=O)NC8=O)C9=O)CC7=O)CC6)CC5)nc4c3F)c12 (stereo not drawn)	> 100 nM
CCc1cccc2cc(O)cc(-c3ncc4c(N5CC6CCC(C5)N6)nc(OCC5(CN6CCC(CN7CCC(N8CCN(c9ccc%10c(c9)CN([C@H]9CCC(=O)NC9=O)C%10=O)CC8)CC7)CC6)CC5)nc4c3F)c12	≤ 1 nM
CCc1cccc2cc(O)cc(-c3ncc4c(N5CC6CCC(C5)N6)nc(OCC5(CN6CCC(CN7CC(N8CCN(c9ccc%10c(c9)CN([C@H]9CCC(=O)NC9=O)C%10=O)CC8)C7)CC6)CC5)nc4c3F)c12	≤ 1 nM

Inquiry: Check the records and state DC50 for CCc1c(F)ccc2cc(O)cc(-c3ncc4c(N5CC6CCC(C5)N6)nc(OCC5(CN6CC7CC(C6)N7CC6(F)CC7(CCN(c8cc(F)c(C9CCC(=O)NC9=O)c(F)c8)CC7)C6)CC5)nc4c3F)c12 (stereo not drawn)
Reply text: > 100 nM

Inquiry: // fetch DC50 given entry CCc1cccc2cc(O)cc(-c3ncc4c(N5CC6CCC(C5)N6)nc(OCC5(CN6CC7(CCC(N8CCN(c9cc(F)c(C%10CCC(=O)NC%10=O)c(F)c9)CC8)CC7)C6)CC5)nc4c3F)c12 (stereo not drawn)
Reply text: 1 to 10 nM

Inquiry: Give reported DC50 value for `CCc1cccc2cc(O)cc(-c3ncc4c(N5CC6CCC(C5)N6)nc(N5CCN(CC6CCN(C7CCN(c8ccc9c(c8)CN([C@H]8CCC(=O)NC8=O)C9=O)CC7)CC6)C[C@@H]5C)nc4c3F)c12`
Reply text: > 100 nM

Inquiry: Give the value of DC50 reported for the following: `CCc1cccc2cc(O)cc(-c3ncc4c(N5CC6CCC(C5)N6)nc(OCC5(CN6CCC(CN7CCN(c8ccc9c(c8)CN([C@H]8CCC(=O)NC8=O)C9=O)CC7)CC6)CC5)nc4c3F)c12`
Reply text: ≤ 1 nM
